# TARGET: HIV-1 PR (Human immunodeficiency virus type 1 group M subtype B, UniProt P04585)
# EXPERIMENT SUMMARY: HIV-protease inhibitory activity assay (FRET peptide substrate)
# CONDITION DETAILS: Test Example 1
# Description: Test Example 1: HIV-Protease Inhibitory Activity Assay The HIV-1 PR assay was performed by using a FRET (Fluorescence Resonance Energy Transfer) peptide substrate (AnaSpec, Inc., Fremont, Calif.). Initially in the intact FRET peptide, the fluorescence of HiLyte Fluor 488 is quenched by QXL 520. Upon substrate cleavage by PR, the fluorescence is recovered and can be monitored. […] Background fluorescence intensity was measured and let it stand for another 15 minutes at room temperature. […]
Recorded measurements of pIC50, one per entry
Give only the number. pIC50 is defined as minus log10 of concentration in molar units.

// below: answered compounds
COMPOUND	OBSERVED MEASUREMENT
COc1ccc(S(=O)(=O)N(CC(C)C)CC(O)C(Cc2ccc(N(C)CC3CCCCC3C(=O)Nc3sc4c(c3C(=O)O)CC(C)(C)CC4)cc2)NC(=O)OC2COC3(C)OCCC23)cc1 (centres unmarked) [Compound I-629]	8.63
CC1(C)CCc2sc(NC(=O)c3ccccc3CNc3ccc(CC(NC(=O)OC4COC5OCCC45)C(O)CN(CC4CCC4)S(=O)(=O)c4ccc5c(c4)OCO5)cc3)c(C(=O)O)c2C1 (centres unmarked)	8.55
COc1ccc(S(=O)(=O)N(CC(C)C)CC(O)C(Cc2ccc(OCc3ccccc3-c3ncc4c(c3C(=O)O)CC(C)(C)CC4)cc2)NC(=O)OC2COC3(C)OCCC23)cc1 (centres unmarked)	8.64

Problem: Specify pIC50 for COc1ccc(S(=O)(=O)N(CC(C)C)CC(O)C(Cc2ccc(NCc3ccc(C(F)(F)F)cc3C(=O)Nc3sc4c(c3C(=O)O)CC(C)(C)CC4)cc2)NC(=O)OC2COC3(C)OCCC23)cc1 (centres unmarked) and stop.
Result: 8.11

====

# TARGET: HIV-1 PR (Human immunodeficiency virus type 1 group M subtype B)
# EXPERIMENT SUMMARY: HIV-protease inhibitory activity assay (FRET peptide substrate)
# CONDITION DETAILS: Test Example 1
QUANTITY MEASURED: IC50 (nM)
Expressed in nM, but write only the number.

// below: answered molecules
MOLECULE	TARGET	QUANTITY MEASURED	OBSERVED MEASUREMENT
COc1ccc(S(=O)(=O)N(CC(C)C)CC(O)C(Cc2ccc(N3CCC(Oc4cc(N(C)C)ccc4-c4sc5c(c4C(=O)O)CC(C)(C)CC5)C3)cc2)NC(=O)OC2COC3(C)OCCC23)cc1 (stereo not drawn)	HIV-1 PR (Human immunodeficiency virus type 1 group M subtype B)	IC50	2.25
COc1ccc(S(=O)(=O)N(CC(C)C)CC(O)C(Cc2ccc(OCc3ccccc3NC(=O)Nc3sc4c(c3C(=O)O)CC(C)(C)CC4)cc2)NC(=O)OC2COC3(C)OCCC23)cc1 (stereo not drawn)	HIV-1 PR (Human immunodeficiency virus type 1 group M subtype B)	IC50	3.7

Could you now consider this next molecule?
Problem: Specify IC50 for COc1ccc(S(=O)(=O)N(CC(C)C)CC(O)C(Cc2ccc(N(Cc3ccncc3)Cc3ccccc3-c3sc4c(c3C(=O)O)CC(C)(C)CC4)cc2)NC(=O)OC2COC3(C)OCCC23)cc1 (stereo not drawn) and stop.
Result: 2.65
